Molecular target: T1, EsCas13d, nuclease-dead (Eubacterium siraeum, UniProt B0MS50, R295A;H300A;R849A;H854A)
T1 sequence: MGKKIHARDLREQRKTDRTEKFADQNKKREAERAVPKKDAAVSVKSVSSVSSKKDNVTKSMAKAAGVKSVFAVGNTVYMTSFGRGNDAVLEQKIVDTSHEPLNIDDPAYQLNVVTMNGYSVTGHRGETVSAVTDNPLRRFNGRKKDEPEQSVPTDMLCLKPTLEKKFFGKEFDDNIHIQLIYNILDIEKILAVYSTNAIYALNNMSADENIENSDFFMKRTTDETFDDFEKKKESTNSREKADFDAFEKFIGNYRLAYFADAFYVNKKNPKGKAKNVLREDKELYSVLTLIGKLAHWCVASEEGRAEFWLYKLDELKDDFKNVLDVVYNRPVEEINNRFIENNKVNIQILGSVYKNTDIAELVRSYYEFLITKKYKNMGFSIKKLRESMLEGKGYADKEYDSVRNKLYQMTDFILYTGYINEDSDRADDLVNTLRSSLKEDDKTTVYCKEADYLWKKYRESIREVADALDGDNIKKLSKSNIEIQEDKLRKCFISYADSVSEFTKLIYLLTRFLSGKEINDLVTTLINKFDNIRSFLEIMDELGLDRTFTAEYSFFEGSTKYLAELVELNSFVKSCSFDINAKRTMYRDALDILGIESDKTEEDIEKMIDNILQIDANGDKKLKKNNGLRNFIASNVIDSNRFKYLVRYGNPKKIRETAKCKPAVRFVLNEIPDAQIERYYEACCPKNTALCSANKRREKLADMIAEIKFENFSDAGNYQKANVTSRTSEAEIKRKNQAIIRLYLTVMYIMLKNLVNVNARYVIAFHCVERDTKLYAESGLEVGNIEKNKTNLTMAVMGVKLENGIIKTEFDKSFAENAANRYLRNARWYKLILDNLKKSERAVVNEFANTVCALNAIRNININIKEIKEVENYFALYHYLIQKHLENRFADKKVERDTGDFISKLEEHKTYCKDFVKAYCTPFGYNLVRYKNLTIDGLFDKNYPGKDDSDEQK
Experiment: crRNA (strand 1, pre-loaded); Mg2+; 40 mM Tris-HCl pH 7.5, 150 mM NaCl, 6 mM MgCl2, 1 mM DTT, 0.1% Tween-20, 0.2 mg/ml BSA; 25 C; 10 min per concentration, then washed
Settings: tags: His6-TwinStrep-SUMO cleaved; N-terminal SNAP kept (SNAP-Surface 488); label: 3' end held by stalled T7 RNA polymerase
pKd: −log10 of the molar value.
The entries below come with measured pKd values attached.
property.measured: pKd

binder	property.measured	value.observed
target 1 insU 3' of 9,insG 3' of 3 (mixed) RNA 1: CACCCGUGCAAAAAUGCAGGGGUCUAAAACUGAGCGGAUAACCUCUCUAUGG RNA 2: GGGAAUGGAUCCACAUCUACGAAUUCGUACCAUAGAGAGGUUAUUCCGCUGCACCGAGAUCGGAAGAGCACACGU	pKd	7.90
target 2 MT 5'PFS ACU 3'PFS CGU (mixed) RNA 1: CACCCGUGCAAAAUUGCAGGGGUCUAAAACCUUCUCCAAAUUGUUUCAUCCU RNA 2: GGGAAUGGAUCCACAUCUACGAAUUCACUAGGAUGAAACAAUUUGGAGAAGCGUAGAUCGGAAGAGCACACGU	pKd	8.09
target 1 A14G,A16C (mixed) RNA 1: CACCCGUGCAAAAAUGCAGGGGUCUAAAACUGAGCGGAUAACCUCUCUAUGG RNA 2: GGGAAUGGAUCCACAUCUACGAAUUCGUACCAUAGCGGGGUUAUCCGCUCACCGAGAUCGGAAGAGCACACGU	pKd	7.17
target 1 insG 3' of 14,insA 3' of 7 (mixed) RNA 1: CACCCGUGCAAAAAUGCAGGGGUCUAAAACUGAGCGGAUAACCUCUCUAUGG RNA 2: GGGAAUGGAUCCACAUCUACGAAUUCGUACCAUAGAGAGGGUUAUCACGCUCACCGAGAUCGGAAGAGCACACGU	pKd	8.21
